- Tested on: Enterococcus faecium
- assayInfo: Antimicrobial activity against Enterococcus faecium A6345
- Type: functional
propertyName: MIC

[[record]]
cpdsmiles = "CC(=O)NC[C@H]1CN(c2ccc(N3CCOCC3)c(F)c2)C(=O)O1"
testtarget = "Enterococcus faecium"
propertyname = "MIC"
measurement = "32 µg/mL"

[[record]]
cpdsmiles = "CC(=O)NC[C@H]1CN(c2ccc(-c3ccc(CNCCCF)cc3)c(F)c2)C(=O)O1"
testtarget = "Enterococcus faecium"
propertyname = "MIC"
measurement = "4 µg/mL"

[[record]]
cpdsmiles = "CC(=O)NC[C@H]1CN(c2ccc(-c3ccc(CNCc4cnn[nH]4)cc3)c(F)c2)C(=O)O1"
testtarget = "Enterococcus faecium"
propertyname = "MIC"
measurement = "4 µg/mL"

[[record]]
cpdsmiles = "CC[C@H]1OC(=O)[C@H](C)[C@@H](O[C@H]2C[C@@](C)(OC)[C@@H](O)[C@H](C)O2)[C@H](C)[C@@H](O[C@@H]2O[C@H](C)C[C@H](N(C)C)[C@H]2O)[C@](C)(O)C[C@@H](C)CN(C)[C@H](C)[C@@H](O)[C@]1(C)O"
testtarget = "Enterococcus faecium"
propertyname = "MIC"
measurement = "2 µg/mL"


----------
- Tested on: Enterococcus faecium
- assayInfo: Antimicrobial activity against Enterococcus faecium A5960
- Format: functional
propertyName: MIC (µg/mL)

[[record]]
cpdsmiles = "CC[C@H]1OC(=O)[C@H](C)[C@@H](O[C@H]2C[C@@](C)(OC)[C@@H](O)[C@H](C)O2)[C@H](C)[C@@H](O[C@@H]2O[C@H](C)C[C@H](N(C)C)[C@H]2O)[C@](C)(O)C[C@@H](C)CN(C)[C@H](C)[C@@H](O)[C@]1(C)O"
qualifiersign = ">"
measurement = 128

[[record]]
cpdsmiles = "CC(=O)NC[C@H]1CN(c2ccc(N3CCOCC3)c(F)c2)C(=O)O1"
qualifiersign = "="
measurement = 64

[[record]]
cpdsmiles = "CC(=O)NC[C@H]1CN(c2ccc(-c3ccc(CNCCCF)cc3)c(F)c2)C(=O)O1"
qualifiersign = "="
measurement = 4

[[record]]
cpdsmiles = "CC(=O)NC[C@H]1CN(c2ccc(-c3ccc(CNCc4cnn[nH]4)cc3)c(F)c2)C(=O)O1"
qualifiersign = "="
measurement = 4


----------
- Test system: Haemophilus influenzae
- assayInfo: Antimicrobial activity against Haemophilus influenzae A1950
- Assay type: functional
# MIC listing for each entry below
propertyName: MIC (µg/mL)

[[record]]
cpdsmiles = "CC[C@H]1OC(=O)[C@H](C)[C@@H](O[C@H]2C[C@@](C)(OC)[C@@H](O)[C@H](C)O2)[C@H](C)[C@@H](O[C@@H]2O[C@H](C)C[C@H](N(C)C)[C@H]2O)[C@](C)(O)C[C@@H](C)CN(C)[C@H](C)[C@@H](O)[C@]1(C)O"
propertyname = "MIC"
measurement = 4

[[record]]
cpdsmiles = "CC(=O)NC[C@H]1CN(c2ccc(N3CCOCC3)c(F)c2)C(=O)O1"
propertyname = "MIC"
measurement = 16

[[record]]
cpdsmiles = "CC(=O)NC[C@H]1CN(c2ccc(-c3ccc(CNCc4cnn[nH]4)cc3)c(F)c2)C(=O)O1"
propertyname = "MIC"
measurement = 1

[[record]]
cpdsmiles = "CC(=O)NC[C@H]1CN(c2ccc(-c3ccc(CNCCCF)cc3)c(F)c2)C(=O)O1"
propertyname = "MIC"
measurement = 4


----------
- Tested on: Staphylococcus aureus
- assayInfo: Antimicrobial activity against Staphylococcus aureus A8727
- Format: functional
# MIC listing for each entry below
propertyName: MIC (µg/mL)

[[record]]
cpdsmiles = "CC(=O)NC[C@H]1CN(c2ccc(-c3ccc(CNCCCF)cc3)c(F)c2)C(=O)O1"
testtarget = "Staphylococcus aureus"
propertyname = "MIC"
unitofmeasurement = "µg/mL"
measurement = 4

[[record]]
cpdsmiles = "CC(=O)NC[C@H]1CN(c2ccc(N3CCOCC3)c(F)c2)C(=O)O1"
testtarget = "Staphylococcus aureus"
propertyname = "MIC"
unitofmeasurement = "µg/mL"
measurement = 8

[[record]]
cpdsmiles = "CC(=O)NC[C@H]1CN(c2ccc(-c3ccc(CNCc4cnn[nH]4)cc3)c(F)c2)C(=O)O1"
testtarget = "Staphylococcus aureus"
propertyname = "MIC"
unitofmeasurement = "µg/mL"
measurement = 4

[[record]]
cpdsmiles = "CC[C@H]1OC(=O)[C@H](C)[C@@H](O[C@H]2C[C@@](C)(OC)[C@@H](O)[C@H](C)O2)[C@H](C)[C@@H](O[C@@H]2O[C@H](C)C[C@H](N(C)C)[C@H]2O)[C@](C)(O)C[C@@H](C)CN(C)[C@H](C)[C@@H](O)[C@]1(C)O"
testtarget = "Staphylococcus aureus"
propertyname = "MIC"
unitofmeasurement = "µg/mL"
measurement = 16


----------
- System: Enterococcus faecalis
- assayInfo: Antimicrobial activity against Enterococcus faecalis ATCC 29212
- Type: functional
propertyName: MIC (µg/mL)

[[record]]
cpdsmiles = "CN[C@H](CC(C)C)C(=O)N[C@H]1C(=O)N[C@@H](CC(N)=O)C(=O)N[C@H]2C(=O)N[C@H]3C(=O)N[C@H](C(=O)N[C@H](C(=O)O)c4cc(O)cc(O)c4-c4cc3ccc4O)[C@H](O)c3ccc(c(Cl)c3)Oc3cc2cc(c3O[C@@H]2O[C@H](CO)[C@@H](O)[C@H](O)[C@H]2O[C@H]2C[C@](C)(N)[C@H](O)[C@H](C)O2)Oc2ccc(cc2Cl)[C@H]1O"
testtarget = "Enterococcus faecalis"
propertyname = "MIC"
qualifiersign = "="
measurement = 2

[[record]]
cpdsmiles = "CC[C@H]1OC(=O)[C@H](C)[C@@H](O[C@H]2C[C@@](C)(OC)[C@@H](O)[C@H](C)O2)[C@H](C)[C@@H](O[C@@H]2O[C@H](C)C[C@H](N(C)C)[C@H]2O)[C@](C)(O)C[C@@H](C)CN(C)[C@H](C)[C@@H](O)[C@]1(C)O"
testtarget = "Enterococcus faecalis"
propertyname = "MIC"
qualifiersign = "="
measurement = 8

[[record]]
cpdsmiles = "CC(=O)NC[C@H]1CN(c2ccc(-c3ccc(CNCCCF)cc3)c(F)c2)C(=O)O1"
testtarget = "Enterococcus faecalis"
propertyname = "MIC"
qualifiersign = "="
measurement = 1

[[record]]
cpdsmiles = "CC(=O)NC[C@H]1CN(c2ccc(-c3ccc(CNCc4cnn[nH]4)cc3)c(F)c2)C(=O)O1"
testtarget = "Enterococcus faecalis"
propertyname = "MIC"
qualifiersign = "≤"
measurement = 0.25


----------
- Test system: Staphylococcus aureus
- assayInfo: Antimicrobial activity against Staphylococcus aureus A7817
- Assay type: functional
# MIC listing for each entry below
propertyName: MIC (µg/mL)

[[record]]
cpdsmiles = "CC[C@H]1OC(=O)[C@H](C)[C@@H](O[C@H]2C[C@@](C)(OC)[C@@H](O)[C@H](C)O2)[C@H](C)[C@@H](O[C@@H]2O[C@H](C)C[C@H](N(C)C)[C@H]2O)[C@](C)(O)C[C@@H](C)CN(C)[C@H](C)[C@@H](O)[C@]1(C)O"
measurement = 1

[[record]]
cpdsmiles = "CC(=O)NC[C@H]1CN(c2ccc(N3CCOCC3)c(F)c2)C(=O)O1"
measurement = 64

[[record]]
cpdsmiles = "CC(=O)NC[C@H]1CN(c2ccc(-c3ccc(CNCCCF)cc3)c(F)c2)C(=O)O1"
measurement = 16

[[record]]
cpdsmiles = "CC(=O)NC[C@H]1CN(c2ccc(-c3ccc(CNCc4cnn[nH]4)cc3)c(F)c2)C(=O)O1"
measurement = 32


----------
# MIC listing for each entry below
- Test system: Enterococcus faecalis
- assayInfo: Antimicrobial activity against Enterococcus faecalis A6343
- Assay type: functional
propertyName: MIC (µg/mL)

[[record]]
compound = "CC(=O)NC[C@H]1CN(c2ccc(-c3ccc(CNCc4cnn[nH]4)cc3)c(F)c2)C(=O)O1 [RADEZOLID]"
propertyname = "MIC"
qualifiersign = "="
measurement = 4

[[record]]
compound = "CC[C@H]1OC(=O)[C@H](C)[C@@H](O[C@H]2C[C@@](C)(OC)[C@@H](O)[C@H](C)O2)[C@H](C)[C@@H](O[C@@H]2O[C@H](C)C[C@H](N(C)C)[C@H]2O)[C@](C)(O)C[C@@H](C)CN(C)[C@H](C)[C@@H](O)[C@]1(C)O [AZITHROMYCIN]"
propertyname = "MIC"
qualifiersign = ">"
measurement = 128

[[record]]
compound = "CC(=O)NC[C@H]1CN(c2ccc(N3CCOCC3)c(F)c2)C(=O)O1 [LINEZOLID]"
propertyname = "MIC"
qualifiersign = "="
measurement = 32

[[record]]
compound = "CC(=O)NC[C@H]1CN(c2ccc(-c3ccc(CNCCCF)cc3)c(F)c2)C(=O)O1"
propertyname = "MIC"
qualifiersign = "="
measurement = 2


----------
- Test system: Staphylococcus capitis
- assayInfo: Antimicrobial activity against Staphylococcus capitis A8935
- Type: functional
# MIC listing for each entry below
propertyName: MIC (mg/L)

[[record]]
cpdsmiles = "CN[C@H](CC(C)C)C(=O)N[C@H]1C(=O)N[C@@H](CC(N)=O)C(=O)N[C@H]2C(=O)N[C@H]3C(=O)N[C@H](C(=O)N[C@H](C(=O)O)c4cc(O)cc(O)c4-c4cc3ccc4O)[C@H](O)c3ccc(c(Cl)c3)Oc3cc2cc(c3O[C@@H]2O[C@H](CO)[C@@H](O)[C@H](O)[C@H]2O[C@H]2C[C@](C)(N)[C@H](O)[C@H](C)O2)Oc2ccc(cc2Cl)[C@H]1O"
propertyname = "MIC"
unitofmeasurement = "mg/L"
qualifiersign = "="
measurement = 1

[[record]]
cpdsmiles = "CC[C@H]1OC(=O)[C@H](C)[C@@H](O[C@H]2C[C@@](C)(OC)[C@@H](O)[C@H](C)O2)[C@H](C)[C@@H](O[C@@H]2O[C@H](C)C[C@H](N(C)C)[C@H]2O)[C@](C)(O)C[C@@H](C)CN(C)[C@H](C)[C@@H](O)[C@]1(C)O"
propertyname = "MIC"
unitofmeasurement = "mg/L"
qualifiersign = "="
measurement = 64

[[record]]
cpdsmiles = "CC(=O)NC[C@H]1CN(c2ccc(-c3ccc(CNCc4cnn[nH]4)cc3)c(F)c2)C(=O)O1"
propertyname = "MIC"
unitofmeasurement = "mg/L"
qualifiersign = "≤"
measurement = 0.25

[[record]]
cpdsmiles = "CC(=O)NC[C@H]1CN(c2ccc(N3CCOCC3)c(F)c2)C(=O)O1"
propertyname = "MIC"
unitofmeasurement = "mg/L"
qualifiersign = "="
measurement = 16

[[record]]
cpdsmiles = "CC(=O)NC[C@H]1CN(c2ccc(-c3ccc(CNCCCF)cc3)c(F)c2)C(=O)O1"
propertyname = "MIC"
unitofmeasurement = "mg/L"
qualifiersign = "="
measurement = 1

